// data source = the supplement of paper PMC10567573

B1: FCHSD1 (parent)
chain: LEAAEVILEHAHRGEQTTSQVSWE

Variants of: B1
assay_name: protein stability index of a GFP-peptide fusion (GPS, HEK-293T) (PSI 1-6); higher = more stable;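 also: lentivirally expressed fusions sorted by FACS into six bins by GFP to DsRed ratio, PSI derived from sequencing read proportions per bin multiplied by bin number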
conditions: c terminus: a fixed tail appended
Where protein stability index equals or exceeds 4, the correct label is true; where it does not, the label is false.

• LEAAEQILEHAHRGEQTTSQVSWE [V6Q] = true
• LEAAEVIKEHAHRGEQTTSQVSWE [L8K] = true
• LEAAERILEHAHRGEQTTSQVSWE [V6R] = true
• LEAAEVILEFAHRGEQTTSQVSWE [H10F] = false
• LEAAEVICEHAHRGEQTTSQVSWE [L8C] = true
• LELAEVILEHAHRGEQTTSQVSWE [A3L] = false
• LEAAEVILEHAHRGEQTTSQVSIE [W23I] = true
• LEAAEVILEHAHRGEQTTSQVSWK [E24K] = true
• LESAEVILEHAHRGEQTTSQVSWE [A3S] = true
• LEAAEVILEHAHRGEQTCSQVSWE [T18C] = true
• LEAAEVILEHAHRGIQTTSQVSWE [E15I] = false
• LEAAEVILEHAHRGKQTTSQVSWE [E15K] = false
• LEAAEVFLEHAHRGEQTTSQVSWE [I7F] = true
• LEAAEVILEHAHRGEQTTSQVPWE [S22P] = true
• LEAAEVILEHAHRGEQTTSQVSWG [E24G] = false
• LEAAEVILEHMHRGEQTTSQVSWE [A11M] = true
• LEAAEVILEHAHRGEQTTSQVSQE [W23Q] = true
• LECAEVILEHAHRGEQTTSQVSWE [A3C] = true
• LEAAEVILEHAHRGEQTTTQVSWE [S19T] = true
• LEAAEVILEHAHRGEQTTSQASWE [V21A] = true
• LEAAEVILEHAHRGETTTSQVSWE [Q16T] = true
• LEAAEVILEHCHRGEQTTSQVSWE [A11C] = true
